Data provenance: patent US10780092B2

target: human recombinant sGC enzyme (Homo sapiens (Human), UniProt Q02108+Q02153); assay: SEC competition binding assay with [3H] Compound B radioligand; details: displacement of 1.6 nM [3H] Compound B, 24 h at 37° C.

{"molecule": "CC1(c2ccc(Cl)c(O)c2)C(=O)Nc2nc(-c3cn4ccnc4c(Cc4ccc(F)cc4)n3)nc(NCC(O)C(F)(F)F)c21 (single isomer, unassigned) [Example 132-AA]", "Ki / nM": 1.21}
{"molecule": "CC1(c2cc(O)c(C(F)(F)F)c(F)c2)C(=O)Nc2nc(-c3cn4ccnc4c(CC4CCCCC4)n3)nc(N)c21 (stereo not shown) [Example 97-B]", "Ki / nM": 0.587}
{"molecule": "CC1CCC(Cc2nc(-c3nc(N)c4c(n3)NC(=O)C4(C)c3ccc(Cl)c(O)c3)cn3ccnc23)CC1 (stereo not shown) [Example 108-AA]", "Ki / nM": 0.924}
{"molecule": "CC1(c2ccc(Cl)c(O)c2)C(=O)Nc2nc(-c3cn4ncnc4c(CCCCF)n3)nc(N)c21 (stereo not shown) [Example 106-A]", "Ki / nM": 1.84}
{"molecule": "Cc1cccc(Cc2nc(-c3nc(N)c4c(n3)NC(=O)C4(C)c3cccc(O)c3)cn3ccnc23)c1 (stereo not shown) [Example 122-B]", "Ki / nM": 15.6}
{"molecule": "CC1(c2ccc(Cl)c(O)c2)C(=O)Nc2nc(-c3cn4ncnc4c(Cc4ccc(F)cc4)n3)nc(N)c21 (stereo not shown) [Example 26-A]", "Ki / nM": 0.276}
{"molecule": "CC1(c2ccc(C(F)(F)F)c(O)c2)C(=O)Nc2nc(-c3cn4ccnc4c(Cc4cc(F)cc(F)c4)n3)nc(N)c21 (stereo not shown) [Example 46-B]", "Ki / nM": 0.691}
{"molecule": "CC(C)CCc1nc(-c2nc(N)c3c(n2)NC(=O)C3(C)c2ccc(F)c(O)c2)cn2ccnc12 (stereo not shown) [Example 47-B]", "Ki / nM": 0.676}
{"molecule": "CC1(c2ccc(O)cc2)C(=O)Nc2nc(-c3cn4ccnc4c(CCC(F)(F)C(F)(F)F)n3)nc(N)c21 (stereo not shown) [Example 81-B]", "Ki / nM": 14}
{"molecule": "CC1(c2ccc(F)c(Cl)c2O)C(=O)Nc2nc(-c3cn4ccnc4c(Cc4cc(F)cc(F)c4)n3)nc(N)c21 (stereo not shown) [Example 96-B]", "Ki / nM": 0.862}
{"molecule": "CC1(c2ccc(Cl)c(O)c2Cl)C(=O)Nc2nc(-c3cn4ccnc4c(CC4CCCCC4)n3)nc(N)c21 (stereo not shown) [Example 69-A]", "Ki / nM": 3.47}
{"molecule": "CC1(c2ccc(Cl)c(O)c2)C(=O)Nc2nc(-c3cn4ccnc4c(CCC(F)(F)C(F)(F)F)n3)nc(N)c21 (stereo not shown) [Example 65-A]", "Ki / nM": 2.26}
{"molecule": "CC1(c2ccc(Cl)c(O)c2)C(=O)Nc2nc(-c3cn4ccnc4c(Cc4c(F)cccc4F)n3)nc(N)c21 (stereo not shown) [Example 90-A]", "Ki / nM": 2.43}
{"molecule": "CCCCc1nc(-c2nc(N)c3c(n2)NC(=O)C3(C)c2cc(O)c(Cl)cn2)cn2ccnc12 (stereo not shown) [Example 72-B]", "Ki / nM": 4.62}
{"molecule": "Cc1cccc(Cc2nc(-c3nc(N)c4c(n3)NC(=O)C4(C)c3ccc(O)c(F)c3)cn3ccnc23)c1 (stereo not shown) [Example 127-B]", "Ki / nM": 9.72}
{"molecule": "CC1(c2cc(O)c(Cl)cn2)C(=O)Nc2nc(-c3cn4ccnc4c(Cc4cc(F)ccc4F)n3)nc(N)c21 (stereo not shown) [Example 94-B]", "Ki / nM": 0.149}
